# Experiment Summary: Antimicrobial activity against Salmonella serovar Typhimurium SL1344 expressing tolC::aph mutant by broth dilution method
# Assay type: functional
# Assay Setup: Salmonella enterica
Listed below: MIC values for each entry.
Expressed in µg/mL, but write only the number.

- Compound: "CN1CCN(CCCN2c3ccccc3Sc3ccc(C(F)(F)F)cc32)CC1"
  Quantitative Readout: 32
- Compound: "Cc1ccccc1C(OCCN(C)C)c1ccccc1 (stereo not given)"
  Quantitative Readout: 1020

Incoming: Please supply the value of reported MIC for the item CSc1ccc2c(c1)N(CCC1CCCCN1C)c1ccccc1S2 (stereo not given)
Outgoing: 32

Incoming: Please supply the value of reported MIC for the item `CN(C)CCC=C1c2ccccc2CCc2ccccc21`
Outgoing: 256

Incoming: Please supply the value of reported MIC for the item `CN(C)CCCN1c2ccccc2Sc2ccc(Cl)cc21`
Outgoing: 32
